Tested on: P388 leukemia ip, CD2F1 mice, survival T/C
Experiment Summary: NCI In Vivo Anticancer Drug Screen. Data for tumor model P388 Leukemia (intraperitoneal) in CD2F1 (CDF1) mice
Reported Conditions: endpoint: median survival time; dose: 25.0 mg/kg/injection; schedule: Q01DX009 (ip); vehicle: Klucel (hydroxypropylcellulose) (HPC); higher = longer survival
Inconclusive results and toxic doses are left out.
T/C values by entry

Please review the following examples before continuing.
> print(dat)
                                   molecule  measure    recorded.value
1            N=C(N)SCc1ccc([N+](=O)[O-])cc1      T/C  102 % of control
2  CC12CC(C(=O)O)C(C)(C1=O)C(c1ccccc1)=C2c1ccccc1 (stereo not drawn)      T/C   92 % of control
3           O=C1CCN=C2C(=O)c3ccccc3C(O)=C12      T/C  115 % of control
4  Ic1ccc(C2CC(c3ccccc3)=NN2c2ccccc2)cc1 (stereo not drawn)      T/C   97 % of control
5  CC/C(=C/C(F)(F)C(F)(F)C(F)(F)F)[N+](=O)[O-]      T/C   96 % of control

Problem: # lookup: T/C of CN(C)c1ccc(/C=C/c2c(F)cnc3ccccc23)cc1
Result: 101 % of control

Problem: Fill in: T/C of CC/C(=C(\CC)c1ccc(OC)cc1)c1ccc(OC)cc1 is ___
Result: 107 % of control

Problem: I'd like to know its T/C. The molecule in question is O=C1CSC(=S)N1c1ccc(Cl)cc1
Result: 96 % of control

###

Tested on: P388 leukemia ip, CD2F1 mice, survival T/C
Experiment Summary: NCI In Vivo Anticancer Drug Screen. Data for tumor model P388 Leukemia (intraperitoneal) in CD2F1 (CDF1) mice
Reported Conditions: endpoint: median survival time; dose: 200.0 mg/kg/injection; schedule: Q01DX005 (ip); vehicle: Klucel (hydroxypropylcellulose) (HPC)
Toxic doses and inconclusive results are not listed. Rule for the calls: active = survival T/C of 150% or more; inactive = T/C below 125% in these data.
Bench note: report the call from 1.0 (active), 0.0 (inactive)

> print(dat)
                                   compound                         system.under.test  discrete.label
1           CNC(=O)c1nnn(Cc2ccc(OC)cc2)c1Cl  P388 leukemia ip, CD2F1 mice, survival T/C             0.0
2  O=C1OC(c2ccccc2)=N/C1=C/c1c(-c2ccccc2)c(-c2ccccc2)c2n1CCC2  P388 leukemia ip, CD2F1 mice, survival T/C             0.0
3  O=C(N/N=C/c1ccccc1[O-])c1ccccc1O.O=C(N/N=C/c1ccccc1[O-])c1ccccc1O.[Mn+2]  P388 leukemia ip, CD2F1 mice, survival T/C             0.0

Problem: Give the logged outcome of this assay for the following compound: Cc1cc(C=C2C(=O)OC(C)(C)OC2=O)cc(C)c1O
Result: 0.0

Problem: Just curious, what result did NC(=O)/C(N=Nc1cc(S(=O)(=O)O)ccc1Cl)=N\Nc1cc(S(=O)(=O)O)ccc1Cl get here?
Result: 0.0

Problem: Record lookup: outcome of this test for CNC(=S)P(c1ccccc1)c1ccccc1 ?
Result: 0.0

Problem: What did the test return for O=C1c2ccccc2C(=O)c2c(-c3ccc(Cl)cc3)noc21 ?
Result: 0.0

Problem: So what was the verdict on Cc1ccc2cccc(OC(=O)c3c(F)cccc3Cl)c2n1 in this test?
Result: 0.0

Problem: Could you kindly confirm the outcome this assay logged for CNC(=O)C1CCCCC1Br (stereo unspecified) ?
Result: 0.0

Problem: Outcome logged for Cn1cnc([N+](=O)[O-])c1SCC(N)C(=O)O (stereo unspecified) in this assay:
Result: 0.0

Problem: How was CN1C(=O)C2(OC(N)=C(O)C2=O)c2ccccc21 (stereo unspecified) classified in this test?
Result: 0.0

Problem: Which result was noted for this compound in the test: COc1ccc(N2CC=C(c3ccccc3)OP2(=O)N2CC2)cc1 (stereo unspecified)
Result: 0.0

Problem: Per the assay record, what outcome was assigned to Cn1cnc([N+](=O)[O-])c1Sc1ccncc1S(N)(=O)=O ?
Result: 0.0

Problem: For this compound, state the assay outcome: CC(=O)Nc1ccc2c(=O)n(O)c(=O)[nH]c2c1
Result: 0.0

###

Test system: P388 leukemia ip, CD2F1 mice, survival T/C
Experiment Summary: NCI In Vivo Anticancer Drug Screen. Data for tumor model P388 Leukemia (intraperitoneal) in CD2F1 (CDF1) mice
Reported Conditions: endpoint: median survival time; dose: 6.25 mg/kg/injection; schedule: Q01DX009 (ip); vehicle: saline with Tween-80
Toxic doses and inconclusive results are not listed. The calls were made as follows: active = survival T/C of 150% or more; inactive = T/C below 125% in these data.
Form entry, call: pick from active, inactive

See these solved cases before continuing.
> print(dat)
                                   molecule                         system.under.test  discrete.label
1  CCN(CC)CCNc1ccc(COC(=O)NC)c2sc3ccccc3c(=O)c12  P388 leukemia ip, CD2F1 mice, survival T/C        inactive
2      O=NN(CCCl)C(=O)Nc1c[nH]c(=O)[nH]c1=O  P388 leukemia ip, CD2F1 mice, survival T/C          active
3             NC(=S)N/N=C\c1nccc2c(N)cccc12  P388 leukemia ip, CD2F1 mice, survival T/C          active
4  O[C@H](c1cc(C(F)(F)F)nc2c(C(F)(F)F)cccc12)[C@@H]1CCCCN1  P388 leukemia ip, CD2F1 mice, survival T/C        inactive
5  CC(=O)NC(/C=C/c1ccc(Cl)c(Cl)c1)c1cccc(O)c(=O)c1 (centres undefined)  P388 leukemia ip, CD2F1 mice, survival T/C        inactive

Problem: I would be grateful if you could indicate the recorded call for CCCCCC(=O)c1c(O)cc2c(c1O)C(=O)c1c(O)cc(OC)cc1C2=O .
Result: inactive

###

System: P388 leukemia ip, CD2F1 mice, survival T/C
Experiment Summary: NCI In Vivo Anticancer Drug Screen. Data for tumor model P388 Leukemia (intraperitoneal) in CD2F1 (CDF1) mice
Reported Conditions: endpoint: median survival time; dose: 50.0 mg/kg/injection; schedule: Q01DX009 (ip); vehicle: Klucel (hydroxypropylcellulose) (HPC)
Inconclusive results and toxic doses are left out. The calls were made as follows: active = survival T/C of 150% or more; inactive = T/C below 125% in these data.
Lab note: assign the record to one of active, inactive

Compound	Discrete Label
CC(/C=C/c1ccccc1)=N\Nc1ccc(Cl)cc1Cl	inactive
N#CC1C(=O)NC(=O)C(C#N)C1c1ccncc1 (centres undefined)	inactive
C#CC(CC)OC(=O)c1ccc([N+](=O)[O-])cc1 (centres undefined)	inactive

Here is another compound to look at.
Problem: For this compound, state the assay outcome: C=C(COC(=O)Nc1cc(Cl)ccc1C)C(=O)O
Result: inactive

###

System: P388 leukemia ip, CD2F1 mice, survival T/C
Experiment Summary: NCI In Vivo Anticancer Drug Screen. Data for tumor model P388 Leukemia (intraperitoneal) in CD2F1 (CDF1) mice
Reported Conditions: endpoint: median survival time; dose: 100.0 mg/kg/injection; schedule: Q04DX002 (ip); vehicle: saline with Tween-80; higher = longer survival
Toxic doses and inconclusive results are not listed.
Measure: T/C

> print(dat)
                                   compound                         system.under.test  measure    recorded.value
1  CN1c2ccccc2SC12C(=S)N(c1ccccc1)C(=S)N2c1ccccc1 (centres undefined)  P388 leukemia ip, CD2F1 mice, survival T/C      T/C   98 % of control
2  O=C(ON1C(=O)CCC1=O)C1CCC(CN2C(=O)C=CC2=O)CC1 (centres undefined)  P388 leukemia ip, CD2F1 mice, survival T/C      T/C  120 % of control
3               CSc1snc2c1c(=O)n(C)c(=O)n2C  P388 leukemia ip, CD2F1 mice, survival T/C      T/C   99 % of control
4  FC(F)(F)c1ccccc1N=Nc1c(-c2ccccc2)nn(C(=S)S)c1-c1ccccc1  P388 leukemia ip, CD2F1 mice, survival T/C      T/C   93 % of control
5  COC(=O)C1C(=O)OC(C(C)(C)Cl)C1C(=O)OC (centres undefined)  P388 leukemia ip, CD2F1 mice, survival T/C      T/C   99 % of control
6  Cc1c2c(cc3c4ccccc4n(C)c13)C(=O)c1ccccc1C2=O  P388 leukemia ip, CD2F1 mice, survival T/C      T/C   90 % of control
7     FC(F)(F)COP1OCCS1 (centres undefined)  P388 leukemia ip, CD2F1 mice, survival T/C      T/C  100 % of control
8  CC(=O)OC1CC2(C)CCC3C(C)C(=O)OC3C2C(C)C1=O (centres undefined)  P388 leukemia ip, CD2F1 mice, survival T/C      T/C  100 % of control

Shift focus to the following entry.
Problem: Please report the recorded T/C for C/C(=N\NC(N)=Nc1ccccc1)c1ccc(Cl)c(Cl)c1 .
Result: 110 % of control
